- Measurement notes: soluble on expression in E. coli; label from the status in PepcDB or PDB records
Recorded metric: soluble on expression in E. coli

-- ask Bench note: what soluble on expression in E. coli did `MSEDRSSNGHKSWLDKITQAFAHEPRNRQELLELLRDAHDNKLLDSEALSIVEGAIQVADLQVRDIMVPRSQMMSIRSTQTPKEFLPAIIEAAHSRYPVVGESLDDVMGVLLAKDLLPLILHNDERPFDIKELLRPATFVPESKRLNVLLREFRANRNHMAIVIDEYGGVAGLVTIEDVLEQIVGDIEDEHDVEEDSYIKPLPSGDFIVKALTPVDAFNDFFGSEFSDEEFDTVGGLVMSAFGHLPKRNEVVELGEFRFRVLNADSRRVHLLRLSPLQN` show?
-- reply soluble

-- ask Entry `MGDDLPDWRNKLEPVFLEFEDGCVPEEHYYPCIRRREDEEPKISAEEEYYLMVKEVEDSKGFDIDFAKFRCVFNYRPVDLDDNELALEPETTREFMDRLCRKSLEHFNEIHSTKYEFVRFIKANHHVSAGMMYFITFEGKLLSNDDDSKQFQAKLCYCGGTPEIISCELKP` : reported soluble on expression in E. coli = ?
-- reply soluble

----------
- Measurement notes: soluble on expression in E. coli; label from the status in PepcDB or PDB records
Recorded metric: soluble on expression in E. coli

-- ask Could you tell me which soluble on expression in E. coli is on file for `MLGLRRKVRIETERMTLRLPAHSDWRDWAALRAESATFLTPWEPVWSSDHLSRKAFTNRVYWAARAESQGTALPVLLIRREDQALLGAITLDNIRRGPAQSGTLGYWIGRPHARQGYMREAIQGIVHHAFTAMDVSRIEAACLPENAASRGVLEKCGFKYEGVAQSYLQIAGRWRNHVLYANLRGDRRGRTDAG` ?
-- reply not soluble

-- ask For `MGSDKIHHHHHHMAGSLIERTLRVLETLSSEPDGIPLQRLAERLEIPKSAAHRICNELGRQGYVRQETRTGHYRLSTRLIALGFRYLGSTGASDVLQPILDRLADETGELVRLGVIEGDRQTWIAKAQGTRTGLRYDPDMGREAPLRYTASGQAWLASLDDQAALALLERQGHHNPEHFGPNAPRTDYELLDRLALARERGYTCCVDSSALGTSAFGAVIRHPMQGHTIGVISVAGPSVRLTEDRMHELAPKLLQAVEELSQCSQASQLFSE` , what is its reported soluble on expression in E. coli?
-- reply not soluble

-- ask Which soluble on expression in E. coli is listed for `MAHHHHHHMAASLSSSPVRHPIVDNAAVPAASHRIPPPLNGFAFLEHRRSALSHDTFIARDVRQQQHPEQQDNDPAKVIIRVYALEYLRRDEECRFALERECLTARLVVHPHLLPLGAPFASKTDLFVVEKYCAGGDLYELMVSLAKEDPIASEMGAAKGEAPPRSSTGLPTNTVKRFMRELLSAVQYLHRTCGLVHRNIKLETLFIDEEQHLRLGGFGLCAVLPPPSVVTGDREGALDAPDAPEDTASSSHEPLRLCCGSKHYAAPELVQGHPYQGEGVDAWACGVVLFALLTSCFPFDSDDGDEALFRLLCGDVEAHLAQHPAMAAIEDPQACDLVRNLLRPNPNARYTVSEALEHPYLWVA` ?
-- reply not soluble

----------
- Measurement notes: soluble on expression in E. coli; label from the status in PepcDB or PDB records
Recorded metric: soluble on expression in E. coli

-- ask What does the data say about its soluble on expression in E. coli? Entry: `MKIGYLGPRGTFTEMAVQTLFDDKNVLKPYRTIPDCMDSVANGDMDAAVVPVENAIEGSVNVTLDYLIHKQRLEIVADIVVPISQHFLVHPNQRDNEIKKILSHPHAVAQCHEFLRSSYPGVEIEYMTSTAAAAQWVADHPNEPVAAIANEQAATSYQLDMLEKDIHDYDENRTRFAVLAKGKLSLPPYQVEPYTKKTTMMVTLSSDFSGALHQVLSAFAWRKLNLTKIESRPMKTGLGNYFFIIDVDCEADDVLIPGVMQELEALGCGVELLGSYPCFFHTSLKLTEASSV`
-- reply not soluble

-- ask Bench note: what soluble on expression in E. coli did `MESAGFHYKLDIPAGTPDCAIVLLHGSGRTEDDLISFGRAVFPTGALYAPRGAVAWENGFAFFRRKPDRELDIDDLKHQATRLCHFVAFVFQQTGRRPILVGYSNGAIIAAETICQAHHLSKGAILLRPLSPRKDQSLPNLAGYPVLLLAGASDDRRHPSDAPHLSEQLTSAGADAVLETINTGHGWAEDAADERLSRQWLARLPIA` show?
-- reply not soluble

----------
- Measurement notes: soluble on expression in E. coli; label from the status in PepcDB or PDB records
Recorded metric: soluble on expression in E. coli

-- ask Need soluble on expression in E. coli of `MWITTTPWSKHSPNWVLADNGEKLIVPEIILGDAQGPTRNEWYIGLSSVLGFSFWSPDYDGVGTWLDAATQLNEQGGGDVITYSSGAHIVRTLLLAASQSNVHSTFTSKALGNDQTSSMTSSTTAVTVAKSGDGQQQTGEQKEEDWKDISKADLFKDDPYVLKNFGDSTTQAKMQSGGSTNSNGNGSQASLAFTKKALSLLKFLVDNKILKKDKVKEAIMNPDQYLSKRSKLDSNNQKPTKDDFIGSEFKDLYENAAKLNRFNSIWAEKDTDNAKFLITVVDSYFPVLPVPAAGLNETSPTLLKPWFQFRSAPSGNGTIRDYGFIPENK` , thanks.
-- reply soluble

-- ask What soluble on expression in E. coli value was documented for this sequence, `MSDPRYQIDVSVVTRYLKEQSDPENSRFAFAYTITVQNNGSLSAKLLSRHWLITNGDGEVEEVRGAGVVGQQPNIDPGQSHTYSSGAVISTRVGTMQGSYQMFAEDGKRFDAEIAPFRLAVPGALHLEHHHHHH` ?
-- reply soluble

-- ask # get_value(readout='soluble on expression in E. coli', item= `MEEMRVIGLLSSGIDSPVAIHLMASRGAEVYPLHFRQDEIKEKKARKLVSRLKEIHGEKVKDLKVVDALKVQGPVFEKLRELKREKWICIFCKYTMYMVAEKYAREVGAEAIVTGDSLGQVASQTLDNLMVISTATNLPIIRPLIALDKEEIVRIAKEIGTFEISIENEPPCPFLPKFPVVRAGFSQFRKILEEIREVLPK` )
-- reply soluble

----------
- Measurement notes: soluble on expression in E. coli; label from the status in PepcDB or PDB records
Recorded metric: soluble on expression in E. coli

As a guide, the following entries are already answered.
-- ask Sample `MRILFVAAGSPATVFALAPLATAARNAGHQVVMAANQDMGPVVTGVGLPAVATTDLPIRHFITTDREGRPEAIPSDPVAQARFTGRWFARMAASSLPRMLDFSRAWRPDLIVGGTMSYVAPLLALHLGVPHARQTWDAVDADGIHPGADAELRPELSELGLERLPAPDLFIDICPPSLRPANAAPARMMRHVATSRQCPLEPWMYTRDTRQRVLVTSGSRVAKESYDRNFDFLRGLAKDLVRWDVELIVAAPDTVAEALRAEVPQARVGWTPLDVVAPTCDLLVHHAGGVSTLTGLSAGVPQLLIPKGSVLEAPARRVADYGAAIALLPGEDSTEAIADSCQELQAKDTYARRAQDLSREISGMPLPATVVTALEQLAHHHHHH` — what was its soluble on expression in E. coli?
-- reply soluble

-- ask Give the measured soluble on expression in E. coli of `MGSDKIHHHHHHMILKHRRPNIYGLMNKEGNKEEVEMIINELLNRDYKITFLPSGSSAVFLSMWIAKIYSNEISIPDMGGWQGFLKFPKLLNLKNNMIETNLGIIDLEKLDESLKENSSLILTSLAGYLAPQPLKEIKKLCEEREVLFIEDISGKIGGDCGYGDIVVCSTGTPKILNCEYGGFLGISKEIEEKLGNALNDIKILSKTYKTINYFGLLKEELLNAKKTYKKYVEASKIIKDEIENAYFREFEGISVFIECDNPKNISKKINSLIKLDNRKSITTICPNYDRILKNGIVFETKKIDISELNREVINEIIIALSSIL` .
-- reply not soluble

-- ask Record request: soluble on expression in E. coli value, item `MKRNLLSSAIIVAIMSLGLTGCDDKKAETETLPPANSQPAAPAPEAKPTEAPVAKAEAKPETPAQPVVDEQAVFDEKMDVYIKCYNKLQIPVQRSLARYADWLKDFKQGPTGEERTVYGIYGISESNLAECEKGVKSAVALTPALQPIDGVAVSYIDAAVALGNTINEMDKYYTQENYKDDAFAKGKTLHQTFLKNLEAFEPVAESYHAAIQEINDKRQLAELKNIEEREGKTFHYYSLAVMISAKQINNLISQDKFDAEAAMKKVSELETLVAQAKEADKGGMNFSFINSAGQYQLEAKKYVRRIRDKVPYSDWDKEQLQDANSSWMVEDSFPRALREYNEMVDDYNSLR`
-- reply soluble

-- ask Bench note: what soluble on expression in E. coli did `MSLSELARRLNQCKKPVGDQGKVVVDDMNERHYELTGWGLDKIKIDKAYKMLDIGCGGGRTVNRLSKAAEEGEVYGIDYSSDCVRWASEYNKELIKEGRVHISEASVEKLPFEDNKFDVVTAVETIYFWPNVEENIKEVNRVLKKGGKFIIINEIYDDDKFRERNNEFAKNSNMKIYSPEKLKSLLKNAGYLNVEMEIKEENNWICYVSEKEGHHHHHH` show?
-- reply soluble

-- ask Returns the measured soluble on expression in E. coli for the input sequence. Input: `MVGGSLSPAFTIDEATSYINAVKEAFGADQPAKYREFLDIMLDLRANRVDLATVVPRMRELLKDHVNLLLRFNAFLPAEAKETFHDVRSYIYSLKESFRDEPAKYAQFLEILNDYSARRVDAPSAVARMTELMKDHRNLVLGFSVLLSTGDTKTTPLEAEPDNNKRIRVANFISKLKARFQGNDGHVYESFLEILTMYQQGNKSVNDLYQEVVALLQGHEDLVMEFSNVFKRTTGPSGSKSARDR`
-- reply soluble

***
-- ask Record request: soluble on expression in E. coli value, item `KRYIPSVNDFVIGVIIGTFSDSYKVSLQNFSSSVSLSYMAFPNASKKNRPTLQVGDLVYARVCTAEKELEAEIECFDSTTGRDAGFGILEDGMIIDVNLNFARQLLFNNDFPLLKVLAAHTKFEVAIGLNGKIWVKCEELSNTLACYRTIMECCQKNDTAAFKDIAKRQFKEILT`
-- reply soluble

-- ask Suppose we examine the sequence `MPLHVVEQPAFLVAVVPDMVGGRLSSHDKDLLGLARKLAGNDGAVLAVVFGEHKESAFDSAGVDRLLHLSGGEYDGYAPEQRILALRNLENQLAPRHWLFPDSRNGGGELGRRLAAALGERPAGRVWQVEDGRCIGRAGAGREDIQRALPRLLLAAAECAEPVSETRHEVRELHMAEQVARNLPRIEDLGPVAVDPA` ; what soluble on expression in E. coli value has been reported?
-- reply not soluble

-- ask Please look up its soluble on expression in E. coli: `MQGVLAGLPSGIPGIGLEIEGAVQHAPQPGRHSIRCSLKVNHRIDERAQYHLFCTSKSANTTCPKGPSRVLCRDIFDIFDYRNFSMPRANEIKKGMVLNYNGKLLLAKDIDIQSPTARGAATLYKMRFSDVRTGLKVEERFKGDDIVDTVTLTRRYVDFSYVDGNEYVFMDKEDYTPYTFTKDQIEEELLFMPEGGMPDMQVLTWDGQLLALELPQTVDLEIVETAPGIKGASASARNKPATLSTGLVIQVPEYLSPGEKIRIHIEERRYMGRAD`
-- reply not soluble

-- ask For the sequence `MSLTNNLTTKASLVSSAFSPVLVVGKKKELRQPVKIKAVNWHHKKRPVELQVGNFPPERYVLSPGINNIETSIPEVTAPCELPIILKEQGKTVSKINEKATPVKKWTVYLVQHTHTDIGYTKPQTEILSEHLRYIDYAIEYCEQTKDYTNDAKFRWTCESAWAVDEYLKNRPEEQVNKLKKYIAEGQIEVASMYFNMSEIVDENSFKTFLQPVKEFRKHGIPSALAMQNDVNGIAWCLADYLPDLGIKYLWMGEHHYKSQVPFNMPTVFQWESPSGKPILTYRADHYNTGNFWGIEQGDIQKTEPKLLHYLSELERKHYPFDAVGVQYSGYFTDNSPPSIIECKLIREWNEKYAYPKLRSATASEFMDYVTERYGDKIPAYRAEGHHHHHH` , what soluble on expression in E. coli is on record?
-- reply soluble

-- ask What value of soluble on expression in E. coli has been recorded for this entry: `MSLLRAIIVDNEEPATQILQMLLEKTGQIRVVGTFLRAADALSSLRLTKPDVAFLDIEIPDTSGLELANHILAMDSDVEIIFVTAYDHYALHAFRVNALDYLLKPLLPEDVERAVRRLIKRKGLAKDSAPESPLGANIHYFGKFSVYGPASKKPVKWRTSKAEELFAYLVQNLEKEVPKWRICEALWPEYHSEKVDIQLHTTVYKLKKVLTAANIPFDLSFSNGCYWLSLPQAAIDKVEFDAHIASSVPVNQSTIARCEHALSLYTGDYLEENGYLWSLALKAEYGQKFYKLASSVVNFYMTQGDWVRAEKILRSILERCPLDETVHEMLLTCYFTQKDRTAFITHYHTVRKLFQAELGLEPGKSIQTLYHSLLKRMDEGHHHHHH`
-- reply soluble

Provenance of the data: the DeepSol protein solubility set
